The reported numbers originate from paper PMC8458281.

Target: CXCR4 D97E + V112A (human, UniProt P61073-1 1-352, D97E | V112A)
Sequence (P61073 whole entry D97E/V112A): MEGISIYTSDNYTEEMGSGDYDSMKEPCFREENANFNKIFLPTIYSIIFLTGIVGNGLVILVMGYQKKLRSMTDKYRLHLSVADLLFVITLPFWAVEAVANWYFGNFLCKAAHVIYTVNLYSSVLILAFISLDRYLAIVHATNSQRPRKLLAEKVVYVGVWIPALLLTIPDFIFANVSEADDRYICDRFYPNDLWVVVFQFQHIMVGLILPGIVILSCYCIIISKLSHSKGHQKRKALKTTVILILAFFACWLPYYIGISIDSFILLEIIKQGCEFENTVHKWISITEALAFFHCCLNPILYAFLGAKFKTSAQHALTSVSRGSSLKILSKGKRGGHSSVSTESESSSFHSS
Assay: FACS
QUANTITY: IC50 (nM)

> print(dat)
                                     binder  quantitative.result
1  IVRWSKKVPCVS (also called EPI-X4 WSC02; source: synthetic peptide (Fmoc solid-phase synthesis, HPLC-purified)) [WSC02]                 1690
2  ILRWSRKLPCVS (source: synthetic peptide (Fmoc solid-phase synthesis, HPLC-purified)) [EPI-X4 JM#21]                  470
